- experiment: In vivo pharmacokinetics (PK) study in rats
- Parameters: species or system SD rats
- experimental-setup: rat, plasma; SD rats, IV 5 mg/kg
recorded-metric: Cmax (µg/mL)
Numeric only. Scale: µg/mL

GET /value?item= Cc1[nH]c(C(=O)C(=O)N[C@@H](C)C(F)(F)F)c(C)c1C(=O)Nc1ccc(F)c(C#N)c1 [Example 1] &field=Cmax returns 3.51

---

recorded-metric: IC50 (µM)
Report as a plain number; the unit µM is understood.

CYP 2D6 (Homo sapiens (Human), UniProt P10635) assay, compound Cc1[nH]c(C(=O)C(=O)N[C@@H](C)C(F)(F)F)c(C)c1C(=O)Nc1ccc(F)c(C#N)c1 , recorded IC50 = 54

---

recorded-metric: pIC50
Keep in mind that pIC50 stands for -log10 of concentration in molar terms.

The molecule Cc1[nH]c(C(=O)C(=O)N[C@@H](C)C(F)(F)F)c(C)c1C(=O)Nc1ccc(F)c(C#N)c1 on CYP1A2 (Homo sapiens (Human), UniProt P05177): pIC50 was 4.31

---

- experiment: In vivo pharmacokinetics (PK) study in rats
- Design: species or system SD rats
- experimental-setup: SD, rat, in vivo, po, 10 mg/kg
recorded-metric: half-life (h)
Your answer should be a plain number; it is taken to be in h.

Looking up Cc1[nH]c(C(=O)C(=O)N[C@@H](C)C(F)(F)F)c(C)c1C(=O)Nc1ccc(F)c(C#N)c1 [Example 1] , I found its half-life recorded as 45.6

---

- target-under-test: CYP 3A4 (Homo sapiens (Human))
- Sequence (P08684 whole entry): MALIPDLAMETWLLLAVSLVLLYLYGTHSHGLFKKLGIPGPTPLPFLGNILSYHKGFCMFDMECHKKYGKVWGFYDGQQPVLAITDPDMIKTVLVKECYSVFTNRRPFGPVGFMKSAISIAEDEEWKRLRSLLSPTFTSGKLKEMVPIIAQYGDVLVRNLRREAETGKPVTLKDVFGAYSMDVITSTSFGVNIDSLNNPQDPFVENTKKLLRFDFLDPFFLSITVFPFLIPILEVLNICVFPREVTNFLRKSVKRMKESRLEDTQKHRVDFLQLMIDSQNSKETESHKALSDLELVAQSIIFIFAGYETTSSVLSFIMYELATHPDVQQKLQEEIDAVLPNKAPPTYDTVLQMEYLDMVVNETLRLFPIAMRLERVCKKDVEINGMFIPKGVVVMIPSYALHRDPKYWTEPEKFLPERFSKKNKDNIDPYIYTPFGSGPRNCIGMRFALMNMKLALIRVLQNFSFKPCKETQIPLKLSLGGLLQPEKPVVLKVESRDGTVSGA
recorded-metric: IC50

// IC50 lookup, compound = Cc1[nH]c(C(=O)C(=O)N[C@@H](C)C(F)(F)F)c(C)c1C(=O)Nc1ccc(F)c(C#N)c1 [Example 1] , result: > 200 µM

---

- experiment: In vivo pharmacokinetics (PK) study in rats
- Parameters: species or system SD rats
- experimental-setup: rat, plasma; SD rats, PO 10 mg/kg
recorded-metric: AUC(0-inf) (µg·h/mL)
Expressed in µg·h/mL, but write only the number.

The molecule listed as Cc1[nH]c(C(=O)C(=O)N[C@@H](C)C(F)(F)F)c(C)c1C(=O)Nc1ccc(F)c(C#N)c1 has a reported AUC(0-inf) of 284

---

- System: HBV DNA in HepAD38 cells
- experiment: In vitro cell HBV DNA inhibitory activity in HepAD38 cells
- Type: cell-based
- experimental-setup: Hepatitis B virus, 144 h, 6 days treatment, intracellular capsid HBV DNA by qPCR, read-out: EC50, anti-HBV activity in HepAD38 cells
recorded-metric: pEC50
# log scale: pEC50 equals minus log10 of the concentration in mol/L

Data point: Cc1[nH]c(C(=O)C(=O)N[C@@H](C)C(F)(F)F)c(C)c1C(=O)Nc1ccc(F)c(C#N)c1 ; pEC50 = 7.62

---

- experiment: In vivo pharmacokinetics (PK) study in rats
- Design: species or system SD rats
- experimental-setup: rat, plasma; SD rats, PO 10 mg/kg; read-out: AUC(0-48 h)
recorded-metric: AUC(0-t) (µg·h/mL)
All answers are understood in µg·h/mL, so give the number only.

Sure, the documented AUC(0-t) for Cc1[nH]c(C(=O)C(=O)N[C@@H](C)C(F)(F)F)c(C)c1C(=O)Nc1ccc(F)c(C#N)c1 is 254

---

- experiment: In vivo pharmacokinetics (PK) study in rats
- Set-up: species or system SD rats
- experimental-setup: SD, rat, in vivo, iv, 5 mg/kg
recorded-metric: half-life

// Cc1[nH]c(C(=O)C(=O)N[C@@H](C)C(F)(F)F)c(C)c1C(=O)Nc1ccc(F)c(C#N)c1 [Example 1] : half-life value = 52.8 h

---

- experiment: In vivo pharmacokinetics (PK) study in rats
- Design: species or system SD rats
- experimental-setup: rat, plasma; SD rats, PO 10 mg/kg
recorded-metric: Cmax
Answer format: value, then unit.

Input Cc1[nH]c(C(=O)C(=O)N[C@@H](C)C(F)(F)F)c(C)c1C(=O)Nc1ccc(F)c(C#N)c1 [Example 1] . Output Cmax: 4110 ng/mL

---

recorded-metric: pIC50
Quick note: pIC50 means taking -log10 of the concentration in moles per liter.

Param item: Cc1[nH]c(C(=O)C(=O)N[C@@H](C)C(F)(F)F)c(C)c1C(=O)Nc1ccc(F)c(C#N)c1 ; param system: CYP2C19 (Homo sapiens (Human)); output pIC50: 4.70

---

- experiment: In vitro cytotoxicity (CCK-8)
- Type: cell-based
- experimental-setup: human, HepG2.2.15 cells
recorded-metric: CC50 at 6 days

Sure, the documented CC50 at 6 days for Cc1[nH]c(C(=O)C(=O)N[C@@H](C)C(F)(F)F)c(C)c1C(=O)Nc1ccc(F)c(C#N)c1 [Example 1] is > 100 µM

---

- target-under-test: CYP 2C9 (Homo sapiens (Human))
- Sequence (P11712 whole entry): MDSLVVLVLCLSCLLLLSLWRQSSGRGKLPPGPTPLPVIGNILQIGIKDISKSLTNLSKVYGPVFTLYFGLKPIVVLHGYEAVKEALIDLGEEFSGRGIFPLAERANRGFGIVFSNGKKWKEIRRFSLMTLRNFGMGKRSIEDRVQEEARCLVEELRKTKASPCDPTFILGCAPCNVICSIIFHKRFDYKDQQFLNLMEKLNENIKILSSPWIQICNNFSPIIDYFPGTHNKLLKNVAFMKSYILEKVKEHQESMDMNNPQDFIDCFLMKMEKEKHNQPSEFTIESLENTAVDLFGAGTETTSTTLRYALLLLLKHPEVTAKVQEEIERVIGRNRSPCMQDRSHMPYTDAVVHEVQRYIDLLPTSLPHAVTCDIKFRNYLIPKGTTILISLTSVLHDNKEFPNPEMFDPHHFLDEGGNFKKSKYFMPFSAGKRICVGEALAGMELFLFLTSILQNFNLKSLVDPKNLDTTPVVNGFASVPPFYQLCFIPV
recorded-metric: IC50

Lab note: measured IC50 of Cc1[nH]c(C(=O)C(=O)N[C@@H](C)C(F)(F)F)c(C)c1C(=O)Nc1ccc(F)c(C#N)c1 [Example 1] was > 200 µM

---

- experiment: In vivo pharmacokinetics (PK) study in rats
- Parameters: species or system SD rats
- experimental-setup: rat, plasma; SD rats, IV 5 mg/kg; read-out: AUC(0-48 h)
recorded-metric: AUC(0-t) (µg·h/mL)
Write it as a number; the unit µg·h/mL goes unstated.

Per the record, Cc1[nH]c(C(=O)C(=O)N[C@@H](C)C(F)(F)F)c(C)c1C(=O)Nc1ccc(F)c(C#N)c1 [Example 1] has AUC(0-t) of 127
